target: Tubulin; assay: Inhibition of tubulin polymerization (unknown origin) after 1 hr by fluorescence analysis
endpoint: IC50 (µM)

smiles_structure=COc1ccc(S(=O)(=O)Nc2cccnc2Nc2ccc(O)cc2)cc1 assay_value=2.4
smiles_structure=O=C(Nc1cccnc1Nc1ccc(F)cc1)c1cccnc1Nc1cc(C(F)(F)F)cc(C(F)(F)F)c1 assay_value=2.16

----------
system: DU-145; assay: Antiproliferative activity against human DU145 cells assessed as growth inhibition after 48 hrs by SRB assay; details: DU-145, 48 h
endpoint: GI50 (µM)

Worked cases, GI50 given:
smiles_structure=COc1ccc(Nc2ncccc2NC(=O)c2cccnc2Nc2ccc(OC)cc2)cc1 assay_value=21.2
smiles_structure=COc1ccc(Nc2ncccc2NC(=O)c2cccnc2Nc2ccc(F)cc2)cc1 assay_value=6.6
smiles_structure=COc1ccc(Nc2ncccc2C(=O)Nc2cccnc2Nc2ccccc2)cc1 assay_value=8.1
smiles_structure=COc1ccc(Nc2ncccc2NC(=O)c2cccnc2Nc2cc(C(F)(F)F)cc(C(F)(F)F)c2)cc1 assay_value=9.8
smiles_structure=O=C(Nc1cccnc1Nc1ccc(F)cc1)c1cccnc1Nc1ccc(F)cc1 assay_value=8.4

P = COc1ccc(S(=O)(=O)Nc2cccnc2Nc2ccc(O)cc2)cc1
Q = COc1ccc(Nc2ncccc2C(=O)Nc2cccnc2Nc2ccc(Cl)cc2)cc1
Which of the two items, P and Q , has the greater recorded GI50? Respond with the label that goes with your answer.
Q
(Q: 16.6 µM, P: 1.81 µM)

I = O=C(Nc1cccnc1Nc1ccc(F)cc1)c1cccnc1Nc1cc(C(F)(F)F)cc(C(F)(F)F)c1
II = COc1cc(Nc2ncccc2C(=O)Nc2cccnc2Nc2ccc(Cl)cc2)cc(OC)c1OC
Which of the two items, I and II , has the greater recorded GI50? Respond with the label that goes with your answer.
II

----------
system: DU-145; experiment: Antiproliferative activity against human DU145 cells assessed as growth inhibition after 48 hrs by SRB assay; conditions: DU-145, 48 h
endpoint: GI50 (µM)

smiles_structure=COc1cc(Nc2ncccc2C(=O)Nc2cccnc2Nc2ccc(F)cc2)cc(OC)c1OC system=DU-145 measure_unit=µM assay_value=7

1 = O=C(Nc1cccnc1Nc1ccc(Cl)cc1)c1cccnc1Nc1ccc(F)cc1
2 = O=C(Nc1cccnc1Nc1ccccc1)c1cccnc1Nc1ccc(F)cc1
Looking at recorded values for GI50, does 1 or 2 come in lower? Respond with the label that goes with your answer.
1
(1: 4.1 µM, 2: 7.7 µM)

P = O=C(Nc1cccnc1Nc1ccc(Cl)cc1)c1cccnc1Nc1cc(C(F)(F)F)cc(C(F)(F)F)c1
Q = O=C(Nc1cccnc1Nc1ccccc1)c1cccnc1Nc1cc(C(F)(F)F)cc(C(F)(F)F)c1
Which of the two items, P and Q , has the greater recorded GI50? Respond with the label that goes with your answer.
Q
(Q: 4.8 µM, P: 3.1 µM)
